Documented Enzyme Activity Endpoint Assay: IgG across a set of binders
- system name: pooled human IgG (human IgG1, 2, 3 and 4) (human); also: test concentration or dose not given here
- procedure text: cell-based or functional assay
measured endpoint: Enzyme Activity Endpoint Assay: IgG

[
  {
    "binder": "PRT-376 (enzyme) MVTSVWTKGVTPPTNFTYGEDVLHAPYVANQGWYDITKLFNGKDDLLCGAATAGNMLHWWFDQNKEQIENYLKKHPEKQKINFNGEQMFDVKEAIDTKDSQLDSKLFEYFKEKAFPYLSTKHLGVFPDHVIDMFINGYRLSLTNHGPTPVKRGSKDPRGGIFDAVFTRGDQSKLLTNRHDFKEKTLKEISDLIKQELTEGKALGISHTYANVRINHVINLWGADFDAEGNLEAIYVTDSDSNASIGMKKYFVGVNSNGKVAISAKEIEEDNIGAQVLGLFTLSTGQDIWNQTN",
    "measured endpoint": "Enzyme Activity Endpoint Assay: IgG",
    "result": "0 ng/µL"
  },
  {
    "binder": "PRT-388 (enzyme) MVTSVWTKGVTPPTNFTYGEDVLHAPYVANQGWYDITKTFNGKDTLLCGAATAGNMLHWWFDQNKEQIENYLKKHPEKQKINFNGEQMFDVKEAIDTKDSQLDSKLFEYFKEKAFPYLSTKHLGVFPDHVIDMFINGYRLSLTNHGPTPVKRGSKDPRGGIFDAVFTRGDQSKLLTNRHDFKEKTLKEISDLIKQELTEGKALGISHTYANVRINHVINLWGADFDAEGNLEAIYVTDSDSNASIGMKKYFVGVNSNGKVAISAKEIEEDNIGAQVLGLFTLSTGQDIWNQTN",
    "measured endpoint": "Enzyme Activity Endpoint Assay: IgG",
    "result": "34 ng/µL"
  },
  {
    "binder": "PRT-443 (enzyme) MSQTEDSESLQRLRDIEDFQAEKKKQNVVYTKWLDGVDVKDHDFRKIVDGNIAYYATPLLNGRGFYDINKDFNRDSDKCAAAVAANMFHYWLDRNRDNVDRFLRQNPEKHGIIELPDEQLKLSDFLNTYESDDGYRDKSKLFDFISNNFNGPVWTDKLLDNYINGYAYNYKYGRTIEDPTKNTSKINFFKEVFNEKILTNNHSIRNQNEFSVLLSEALYTGKAIGLSYGPAGLRHSLGHIISVWGADLDADGNVVAIYVTDSDDKKLTIGDERVGLKRYKISTDDEGRLRLTAYEETHNTGGQIRGLWTLDTGKQAWADYFDKTEQTGTDQAEQ",
    "measured endpoint": "Enzyme Activity Endpoint Assay: IgG",
    "result": "431 ng/µL"
  },
  {
    "binder": "PRT-425 (enzyme) MTITSVWTKGVTPPTPEDFRYNNEDVLHAPYVANQGWYDITKTFDGKDNLLCGAATAGNMLHWWFDQNKEEIERYLKKHPEKQKIIFNNQELFDVKAAIDTKDSQTNSKLFNYFRDKAFPGLSARQLGVMPDLVLDMFINGYYLNLGKTQSTDVNRPYQDKDKRGGIFDAVFTRGDQTTLLTARHDLKNKGLNEISDLIKQELTEGKALALSHTYANVRINHVINLWGADFDAEGNLIAIYVTDSDANASIGMKKYFVGVNANGKVAISAKKIEGDNIGAQVLGLFTLSTGQDIWQKLS",
    "measured endpoint": "Enzyme Activity Endpoint Assay: IgG",
    "result": "169 ng/µL"
  }
]
